Provenance of the data: the Immune Epitope Database (IEDB)

study-target: HLA-C*01:02
assay-summary: IEDB peptide-MHC binding, purified MHC/direct/fluorescence; filed as Kd, often an IC50 or EC50 that approximates it; bounds were set here for any values at or beyond the usual limits of such assays
cond: source organism: Homo sapiens
assay-readout: Kd

In: Entry PLPDRSLPAL has what Kd?
Out: ≤ 0.1 nM

----------
study-target: HLA-A*03:01
assay-summary: IEDB peptide-MHC binding, purified MHC/competitive/fluorescence; filed as Kd, often an IC50 or EC50 that approximates it; bounds were set here for any values at or beyond the usual limits of such assays
cond: source organism: Variola virus
assay-readout: pKd
Please treat pKd as minus the base-10 logarithm of the molar concentration.

In: Entry ETIEILRNY has what pKd?
Out: 5.71
